systemUnderTest: T1, human Claudin 4 with C-terminal FLAG tag (human, UniProt O14493 1-209)
T1 construct: whole, on cells; forced expression in Ba/F3 cells; also called hCLDN4; hCLN4
T1 sequence (looked up): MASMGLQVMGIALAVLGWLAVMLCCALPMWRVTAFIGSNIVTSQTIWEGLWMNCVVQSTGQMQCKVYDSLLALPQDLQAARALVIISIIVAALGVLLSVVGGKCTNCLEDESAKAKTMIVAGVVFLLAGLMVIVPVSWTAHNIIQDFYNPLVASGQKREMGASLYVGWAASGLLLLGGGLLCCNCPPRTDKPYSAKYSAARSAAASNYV
testProtocol: flow cytometry, hCLDN4/Ba/F3 cells, 2 ug/mL antibody
experimentalReadout: X geometric mean
Quick one: just the number, no unit, thanks!

These solved cases illustrate the format of a correct answer.
Give me measured X geometric mean, please, for this binder: CDN28 (antibody, mouse IgG1, kappa, V domains shown, mouse monoclonal, IgG1/IgK) VH: EVQLQQSGPELVKPGASVKISCKASGYSFTGYFMNWVKQSHGKSLEWLGRINPYNGDTFYNQKFKGKATLTVDKSSNTAHMELRSLTSEDSAVYYCARGDGYYVTSLAYWGQGTLVTVSA VL: NIVMTQSPKSMSMSVGERVTLSCKASENVVSYVSWFQQKPEQSPKLLIYGASNRYTGVPDRFTGSGSATDFTLTISSVQAEDLADYYCGQSYSYPLTFGAGTKLELKR 27

Indicate its recorded X geometric mean; the binder in question is CDN27 (antibody, V domains shown, mouse monoclonal, IgG2a/IgK) VH: EVQLQQSGPELVKPGASVKISCKASGYSFTGYFMNWVKQSHGKSLEWIGRINPYNGDTFYNQKFKGKATLTVDKSSSTAHMELRSLTSEDSAVYYCARSGDWYFDVWGAGTTVTVSS VL: DIVLTQSPASLAVSLGQRATISCRASKSVSTSSYSYMHWYQQKPGQPPKLLIKFASYLESGVPARFSGSGSGTDFTLNIHPVEEEDAATYYCQHSREFPRTFGGGTKLEIKR 302

Next, consider the following binder.
For the binder CDN38 (antibody, V domains shown) VH: EVQLQQSGPELVKPGASVKMSCKASGYSFTGYFMNWVKQSHGKSLEWIGRINPYNGDTFYNQKFKGKATLTVDKSSSTAHMELRSLTSEDSALYYCARSGNYVMDYWGQGTSVTVSS VL: DIVLTQSPASLAVSLGQSVTISCRASESVEYYGTSLMQWYQQKPGQPPKLLIYGASNVESGVPARFSGSGSGTDFSLNIHPVEEDDIAMYFCQQSRKVPWTFGGGTKLEIKR , report X geometric mean. 74
